# test_summary: Stability of the compound assessed as human e-NPP1-mediated hydrolysis at pH 8.5 after 20 mins by HPLC analysis
# Type: ADME
# condition_label: buffer, pH 8.5, 20 min
measurement_kind: Stability

{"molecular_string": "BP(=O)(OP(=O)(O)OP(=O)(O)OC[C@H]1O[C@@H](n2ccc(=O)[nH]c2=O)[C@H](O)[C@@H]1O)OP(=O)(O)OP(=O)(O)OC[C@H]1O[C@@H](n2ccc(=O)[nH]c2=O)[C@H](O)[C@@H]1O.CCCCN(CCCC)CCCC.CCCCN(CCCC)CCCC.CCCCN(CCCC)CCCC.CCCCN(CCCC)CCCC.CCCCN(CCCC)CCCC", "measurement_kind": "Stability", "val": "Stable"}
{"molecular_string": "BP(=O)(OP(=O)(O)OC[C@H]1O[C@@H](n2cnc3c(N)ncnc32)[C@H](O)[C@@H]1O)OP(=O)(O)OC[C@H]1O[C@@H](n2cnc3c(N)ncnc32)[C@H](O)[C@@H]1O.CCCCN(CCCC)CCCC.CCCCN(CCCC)CCCC.CCCCN(CCCC)CCCC", "measurement_kind": "Stability", "val": "Stable"}
{"molecular_string": "Nc1ncnc2c1ncn2[C@@H]1O[C@H](COP(=O)(O)OP(=O)(O)OP(=O)(O)OP(=O)(O)OP(=O)(O)OC[C@H]2O[C@@H](n3cnc4c(N)ncnc43)[C@H](O)[C@@H]2O)[C@@H](O)[C@H]1O", "measurement_kind": "Stability", "val": "Unstable"}
{"molecular_string": "BP(=O)(OP(=O)(O)OP(=O)(O)OC[C@H]1O[C@@H](n2cnc3c(N)ncnc32)[C@H](O)[C@@H]1O)OP(=O)(O)OP(=O)(O)OC[C@H]1O[C@@H](n2cnc3c(N)ncnc32)[C@H](O)[C@@H]1O.CCCCN(CCCC)CCCC.CCCCN(CCCC)CCCC.CCCCN(CCCC)CCCC.CCCCN(CCCC)CCCC.CCCCN(CCCC)CCCC", "measurement_kind": "Stability", "val": "Unstable"}
{"molecular_string": "BP(=O)(OP(=O)(O)OC[C@H]1O[C@@H](n2ccc(=O)[nH]c2=O)[C@H](O)[C@@H]1O)OP(=O)(O)OC[C@H]1O[C@@H](n2ccc(=O)[nH]c2=O)[C@H](O)[C@@H]1O.CCCCN(CCCC)CCCC.CCCCN(CCCC)CCCC.CCCCN(CCCC)CCCC", "measurement_kind": "Stability", "val": "Stable"}
